Experiment Notes: qHTS assay to identify small molecule antagonists of the thyroid receptor (TR) signaling pathway (AID 743065); also: nearly all actives have a fitted effect of over 55% in size
Assay Context: GH3.TRE-Luc, T3-stimulated luciferase inhibition, 23.5 h; series mostly up to 70.3 µM
Results filed as inconclusive are left out. Active and inactive are the calls of the source. Calls follow the shape of the dose curve; as a rule, active = well fitted inhibition curve with a large enough effect in the repeat runs; inconclusive = weak or mixed curves; inactive = no such curve, though single readings can be large or run the other way.
Answer with one of the outcomes active, inactive

Illustrative cases are given below, each with its answer.
| Compound | Label |
| --- | --- |
| Cc1oc(C)c(C(=O)Nc2ccccc2)c1C | active |
| CCC(C(=O)OCCOCCN(CC)CC)c1ccccc1 (centres undefined) | inactive |

Alright, here's another compound for you.
Q. I'd appreciate the recorded outcome for `Nc1nc(Cl)nc2c1ncn2[C@@H]1O[C@H](CO)[C@@H](O)[C@@H]1F` from this test.
A. active

All figures here come from PubChem BioAssay (Tox21).
